# Procedure Text: Metabolic stability in human liver microsomes assessed as compound remaining at 10 uM measured at 15 mins by LC-MS/MS analysis relative to control
# Assay type: ADME, Microsome
# Condition Parameters: read-out: Stability
Quick reference for remaining at 0.25 h, 10 µM among some compounds
Expressed in %, but write only the number.

Solved cases below.
>>> observed("C#Cc1ccc2c(c1)C(c1ccccn1)=NCc1c(C(=O)O)ncn1-2")
91.4
>>> observed("C#Cc1ccc2c(c1)C(c1ccccc1)=NCc1c(C(=O)NC)ncn1-2")
107
>>> observed("C#Cc1ccc2c(c1)C(c1ccccn1)=NCc1c(C(=O)OCC)ncn1-2")
103

Prompt: Reported remaining at 0.25 h, 10 µM, compound C#Cc1ccc2c(c1)C(c1ccccc1F)=NCc1c(C(=O)OCC)ncn1-2 : ____
Response: 20

Prompt: Reported remaining at 0.25 h, 10 µM, compound C#Cc1ccc2c(c1)C(c1ccccc1)=NCc1c(C(=O)OCC)ncn1-2 : ____
Response: 47.6

Prompt: Reported remaining at 0.25 h, 10 µM, compound C#Cc1ccc2c(c1)C(c1ccccn1)=NCc1c(-c3nc(C(C)C)no3)ncn1-2 : ____
Response: 106

Prompt: Reported remaining at 0.25 h, 10 µM, compound C#Cc1ccc2c(c1)C(c1ccccc1)=NCc1c(C(=O)O)ncn1-2 : ____
Response: 95.3

Prompt: Reported remaining at 0.25 h, 10 µM, compound C#Cc1ccc2c(c1)C(c1ccccc1F)=NCc1c(C(=O)NC)ncn1-2 : ____
Response: 96.8

Prompt: Reported remaining at 0.25 h, 10 µM, compound C#Cc1ccc2c(c1)C(c1ccccc1)=NCc1c(-c3nc(C(C)C)no3)ncn1-2 : ____
Response: 109

Prompt: Reported remaining at 0.25 h, 10 µM, compound C#Cc1ccc2c(c1)C(c1ccccn1)=NCc1c(C(=O)NC)ncn1-2 : ____
Response: 104
